# protocol-summary: amyloid nucleation score (Sup35N fusion, yeast selection) (log enrichment); library NNK2; higher = more nucleation; inactive = no reads after selection;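 further: zero at mode of non-aggregating sequences after 7 days selection at 30°C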
assay-metric: amyloid nucleation score

>>> print(df.to_string())
               substance  obs_value
 0  FSFVTFSGNRFDFLLLRPCT   inactive
 1  WHNYSYSRGIRRCHQMKHKR       1.46
 2               PVIFGTR      0.192
 3  MGSGYSQCAGRGWARVERLG       1.44
 4  KEMAFVRGMTARPRYNVNSE       1.22
 5       SRLPLTSMTNSHSWA      0.363
 6  ISETLASSVWRRCVSCGYVM       3.93
 7      WNYSNRNDYELFRTLK      0.316
 8  CTLRAVMSIVRGYFRCYLVC      0.255
 9                TRTQMW      0.739
10               YWKVCRM      0.356
11         DVIVRLFVPYLVV     -0.199
12  FDAQNSWSWHRSWQNVFRKG       1.54
13  ASSNLNDTYITIDADSVHRR      0.033
14        SCSTYNDSSVYWFN       2.04
15  RVMYGGCFHSRKRASVPYLY     -0.405
16             GINCRGAIR     -0.345
17  AQAMLSNTILIYEYRDLFIV     -0.962
18  SYSDPETFISWVLVDWCLMS     -0.753
19  LHIDGNENRFLHRDGKRQEA      0.245
20  DWWSDDSRLGNLLRFSKRSF     -0.636
21  DVQHFIWCCNATVTYPLLVL       1.27
22  GKTYLDKLMGGLHRQDPGTR       1.28
23  TYVHNKVCKNACNFSTLGPC      0.143
24  WYHGSASCEYIGYVYPWHAA       3.58
25  LKWVYLSSIALTFAPPRRLD       3.63
26  MAYSGKVLFHVSDIVVWGKL        5.9
27             SRCIFVFYS       8.16
28             CWDEQLQPS      0.744
29  IIPQNSQDQNRDISVKAFSV     -0.937
30               GVNRAWL       3.35
31  MNWTSVHLDDWSRILIHTYC   inactive
32  PSNLKFKYSCFLLNKCMGVR      0.153
33  MCCGCVNVFFMHARHVLGWS       8.98
34            IKQSYTYNPK       1.87
35  TYGHDKLRVSNIEHQLPGRA      0.306
36           LFISFAACGTF       2.09
37               VCFGEQT          0
38   KWFLGCRVDHRMRVRMCLQ     -0.292
39  FLYLIMKGPLAVKYCIKSLG     -0.545
40  SGNIIFNRRMRRAALEWDIT     -0.125
41  SRIGVLPDNVDTSAKLAYRL       6.95
42           GSYHFHASNTD     -0.555
43  TGNTFIPSLFICRIEGSTSA      0.506
44  FVLSTVRLSAASAPMRFTHL      0.468
45  LSQQSSMLKDRITDICGDLL        1.4
46     SHCLNLGDLRVGYKSGM   inactive
47        AWSLFYRLLPPWNE     -0.656
48                TCAGIV      0.408
49     AVYYGSMWLGQGGIVPW       1.93
50  HSVKCDSLGFLPFSTYWLRI     -0.047
51             VMARYMFVK      0.064
52  YVLRQEVCIIPINSMFVNSF       6.09
53  VVQFSNGDLLILTGCPNTSK      0.449
54  DYPSKKGVVPPRLGISDKNV       2.86
55  HETLQASIFVLLIHTKYHES      -1.58
56  NWKANYEFVRLIVVLLSSRR      0.202
57  ELNMRAYRKMSKGSYSKNSG     -0.462
58  VSRAFNFSRCRRKISPALQC      0.135
59  NQTGSRYRVFGNFHVTACFV      0.838
60     VSGDRLPSLFTCVRLLI      0.492

* * *

# protocol-summary: amyloid nucleation score (Sup35N fusion, yeast selection) (log enrichment); library NNK1; higher = more nucleation; inactive = no reads after selection
assay-metric: amyloid nucleation score

In [3]: df
Out[3]:
               substance  obs_value
 0          VTVFEILWGMTT   inactive
 1               MWVCSYA   inactive
 2  DGLICVPVKLYVNIGKTFTW      0.847
 3  STLLYGLLAYWTYGFAWLFF   inactive
 4        LSMGAHSGGPLQSY     -0.205
 5         IICLVNMDLCKSR        3.9
 6  LRKPKIYVTNRPTQGYGSTA      0.169
 7  PLFNNSRRCWGFGSLEDYLL      0.213
 8               VFNTVVS     -0.161
 9   CMMSNRTCQAQLVMMWEMW   inactive
10           RSDVVVFHQLS     -0.257
11        DILQDFIGQPLRSN       1.04
12  VKGLRSLGSTCRSLKDGITV   inactive
13         TLVSAVSCCLNAC     -0.269
14               MERTWFG      0.276
15  VKCPVGDDHWGSRGDASVIT     -0.004
16  SEEYWVLDWIEVGLKGSLRM     -0.105
17  YGFKLGMFTGSIAMYAGHLI     -0.198
18  RWCMCVENRGMLVWGWNGFV     -0.245

* * *

# protocol-summary: amyloid nucleation score (Sup35N fusion, yeast selection) (log enrichment); library NNK2; higher = more nucleation; inactive = no reads after selection
Please mark condition met if the recorded amyloid nucleation score is equal to or greater than 0.5, and condition not met if it falls below.

               substance     discrete_label
 0          MLDMPDYCNYYL      condition met
 1         ILALNWLFSICST      condition met
 2  NSIVWGIHGFVLTLVFFTCF  condition not met
 3               LRSPWLF  condition not met
 4  PGSVTGMLWSGTFEVRYLGL  condition not met
 5              VRLRGYSR  condition not met
 6    ALPCRLISFFALVGWIVG  condition not met
 7           SRITCKDVMLL  condition not met
 8              TVNCSTCM  condition not met
 9           FLSRSQRCMIG  condition not met
10  ATESIMLLPYNTDPSMTWLT  condition not met
11  RRIINFQGHREEYGEMHTVM  condition not met
12  CSAATSGYYMSQDRLSDTTT  condition not met
13  RNNRLTLVRVSFDVQCEPMV  condition not met
14      KFPYVHLVFLARIYSF  condition not met
15   TQLIVMCHFVVHRRVKWRI      condition met
16               NPVRISL  condition not met
17               KNFSCVN      condition met
18      LSQCYSRLLVSTMKSH      condition met
19  WCSKKPDEFLTINAFRYWED  condition not met
20           LAAWLWYTWKG      condition met
21  YISSKYYWSTVKCFAFNTFH  condition not met
22  FRRYYLLFVPAFCVPLKCQY      condition met
23  IEQFTVNLLTRRLKNSMGQN  condition not met
24   SRAKMVFNFGAWFSRVCKN      condition met

* * *

# protocol-summary: amyloid nucleation score (Sup35N fusion, yeast selection) (log enrichment); library NNK3; higher = more nucleation; inactive = no reads after selection
assay-metric: amyloid nucleation score

               substance  obs_value
 0  YKFLLFFFYSISAFGNDSCD   inactive
 1  CFFSRFILYPSLTLYMTMLR   inactive
 2  VFVSLISSMTIFTCFVPECE       3.28
 3       SNLFTGYGELFVPGS   inactive
 4  LGPMAGRVSRYCNAARLTRC     -0.999
 5              RRSNSHYM   inactive
 6     PGDVRLGDIVLIFFLRM      0.781
 7       GRYLSANLVVKSGCR   inactive
 8  CCYLLHGGRILMIVVMSHHL   inactive
 9  RSWLLSSEFVVVIFSNTEGM       1.24
10  SSCTLVKAGLVNFLRARYSG   inactive
11  KGFSFLRIRRMGLWTVSGYG   inactive
12  VSKVMSEMIYVGIYICKCCL       1.39
13  RINMELLWIFGGSTWFINRG       1.93
14  GLMRDCTTAMIGENDAFWSD   inactive
15     KVIDGVDAMWCMKVFWV   inactive
16  SSDFTSWDVREILGRAVVLC   inactive
17  SWVHGERLMHDCQTLLLYSW   inactive
18                GYTMRG   inactive
19  RIGAYYPMFIFAVLVGSALG   inactive
20             SMATNCTDR   inactive
21  YCSVLELKSYLTLSLSKWKW   inactive
22  QMSCNQRNISMGFKIGRFYM        1.5
23  FGQYSGVSCNWTPGCPAPCF   inactive
